# System: U2OS
# Assay remarks: Incucyte cell viability with U2OS; note: unitless GR value; below 1 slowed growth and below 0 cell loss
# Assay type: toxicity, cell-based
# Condition details: human, 0 h, 10 µM, compound concentration 10 uM, replicate number 1
Assay endpoint: Growth Rate
Answer field: number only, no words.

Study these solved cases before continuing.
{"Compound smiles": "O=C1CN(c2ccccc2F)C(NCCN2CCOCC2)=C1c1nc2cc(Br)ccc2c(=O)[nH]1", "Recorded result": 0.24}
{"Compound smiles": "COc1c(NC(=O)c2cc3cccc(Oc4ccnc(C(=O)N5CCN(C)CC5)c4)c3n2C)cc(C(C)(C)C)cc1NS(C)(=O)=O", "Recorded result": -0.03}
{"Compound smiles": "CC(=O)Nc1c(F)cc(C(=O)N[C@H]2CC[C@H](O)CC2)cc1O[C@@H](C)c1ccccc1", "Recorded result": -0.56}

For `CN(C)CC#Cc1ccc2[nH]c3c(c2c1)-c1nc(N)ncc1CCC3` , what is its reported Growth Rate?
-0.89

* * *

# System: U2OS
# Assay remarks: Incucyte cell viability with U2OS; note: unitless GR value; below 1 slowed growth and below 0 cell loss
# Assay type: toxicity, cell-based
# Condition details: human, 6 h, 10 µM, compound concentration 10 uM, replicate number 1
Each entry below carries its recorded Growth Rate.
Answer field: number only, no words.

Study these solved cases before continuing.
{"Compound": "Cl.Cl.N=C(N)NCCC[C@H](NC(=O)CC1(CC(=O)N2CCN(C3c4ccccc4NC(=O)c4ccccc43)CC2)CCCC1)C(=O)NCCn1c(=O)n(-c2ccccc2)n(-c2ccccc2)c1=O (stereo partly drawn)", "Recorded result": 0.65}
{"Compound": "C=C[C@@]12CCc3cc(O)ccc3[C@H]1CC[C@@]1(C)[C@H]2CC[C@@H]1O", "Recorded result": 0.77}
{"Compound": "CCc1cnn2c(NCc3ccc[n+]([O-])c3)cc(N3CCCCC3CCO)nc12 (stereo not drawn)", "Recorded result": 0.19}
{"Compound": "CCCN1CCC(C#N)(NC(=O)[C@H](CC(C)(C)C)NC(=O)N2CCOCC2)CC1", "Recorded result": 0.96}
{"Compound": "CN1CCCN(C(=O)c2cccc(-c3ccc(/C=C4/C(=O)Nc5ccc(Cl)cc54)o3)c2)CC1", "Recorded result": -0.67}
{"Compound": "C[C@@H]1Cc2c([nH]c3ccccc23)[C@@H](c2c(F)cc(/C=C/C(=O)O)cc2F)N1CC(C)(C)F [AZD-9496]", "Recorded result": 0.39}

For `N#Cc1cccc(-c2c[nH]c3ncnc(N4CCOCC4)c23)c1` , what is its reported Growth Rate?
0.91

Again, but for `Cc1cc(CN(CC(=O)Nc2ccc(Cl)cc2Cl)C2CCCCC2)ccc1OCC(=O)O`
0.64

* * *

# System: Fibroblast
# Assay remarks: Incucyte cell viability with human fibroblast; note: unitless GR value; below 1 slowed growth and below 0 cell loss
# Assay type: toxicity, cell-based
# Condition details: 18 h, 10 µM, compound concentration 10 uM, replicate number 2
Each entry below carries its recorded Growth Rate.
Answer field: number only, no words.

Study these solved cases before continuing.
{"Compound": "CC(C)(C)c1cnc(CSc2cnc(NC(=O)C3CCN(CC(=O)NCCOCCOCCOCCNc4cccc5c4C(=O)N(C4CCC(=O)NC4=O)C5=O)CC3)s2)o1 (centres undefined)", "Growth Rate": -0.15}
{"Compound": "C/C=C1\\C(=O)CC2C3CCC4=CC(=O)CC[C@]4(C)C3CC[C@]12C (some centres undefined)", "Growth Rate": 0.96}
{"Compound": "N#Cc1cccc(-c2nc(-c3cccnc3)no2)c1", "Growth Rate": 0.55}

For `CNc1nc(Nc2ccc(C(=O)N3CCOCC3)cc2OC)ncc1Cl` , what is its reported Growth Rate?
0.63

* * *

Each entry below carries its recorded Growth Rate.
# System: HEK-293T
# Assay remarks: Incucyte cell viability with HEK293T; note: unitless GR value; below 1 slowed growth and below 0 cell loss
# Assay type: toxicity, cell-based
# Condition details: human, 18 h, 10 µM, compound concentration 10 uM, replicate number 2

{"Compound": "CSc1ccc(C[C@@H](C)C(=O)O)cc1Nc1nc(N2CC[C@H](N(C)C)C2)cc(C(F)F)c1C#N.O=C(O)C(F)(F)F", "Recorded result": 0.51}

For `CC(C)(C)NC(=O)c1cncn1C1CCN(c2ccc(-c3nnc(C(F)(F)F)o3)cn2)CC1` , what is its reported Growth Rate?
-0.09

Again, but for `FC(F)(F)c1ccccc1-c1cc(C(F)(F)F)c2[nH]c(C3=NOC4(CCCCC4)C3)nc2c1`
-0.02

Again, but for `CC(C)(O)CNC(=O)N1C(=O)N(c2cccc(C(F)(F)F)c2)C2=C(C(=O)CC2)[C@H]1c1ccc(C#N)cc1`
1

Again, but for `C[C@@H]1C[C@H](N)C[C@H](c2ccncc2NC(=O)c2ccc(F)c(-c3c(F)cccc3F)n2)C1`
0.54

Again, but for `CC1(C)CCC[C@]2(C)[C@@H](C=O)C(C=O)=CC[C@@H]12`
0.81

Again, but for `Cc1cc(O)c(-c2ccc([C@@H](C)CN(C)C)cc2)c2c1[nH]c(=O)c1sccc12`
-0.54

* * *

# Tested on: U2OS
# Assay remarks: Incucyte cell viability with U2OS; note: unitless GR value; below 1 slowed growth and below 0 cell loss
# Type: toxicity, cell-based
# Condition details: human, 0 h, 10 µM, compound concentration 10 uM, replicate number 1
Each entry below carries its recorded Growth Rate.
Answer field: number only, no words.

Study these solved cases before continuing.
{"Molecule": "CC(=O)Nc1cccc(-n2c(=O)n(C3CC3)c(=O)c3c(Nc4ccc(I)cc4F)n(C)c(=O)c(C)c32)c1", "Target of assay": "U2OS", "Recorded result": 0.34}
{"Molecule": "CS(=O)(=O)NC(=O)CCC/C=C\\C[C@H]1C(=O)C[C@@H](O)[C@@H]1/C=C/[C@@H](O)COc1ccccc1", "Target of assay": "U2OS", "Recorded result": 0.72}
{"Molecule": "Nc1c(CC(=O)O)cccc1C(=O)c1ccc(Br)cc1", "Target of assay": "U2OS", "Recorded result": 0.27}
{"Molecule": "COc1ccc(C(F)(F)F)cc1NC(=O)Nc1ccc(Oc2cc(C)nc(N)n2)c2ccccc12", "Target of assay": "U2OS", "Recorded result": -1}

For `CNC(=O)c1c(F)cccc1Nc1nc(Nc2cc3c(cc2OC)CCN3C(=O)CN(C)C)nc2[nH]ccc12` , what is its reported Growth Rate?
-0.99

Again, but for `NC(=O)OC[C@H](NC(=O)Cn1nc(-c2ccc(Cl)cc2)n(C[C@H](O)C(F)(F)F)c1=O)c1cccc(C(F)(F)F)c1`
0.95

Again, but for `CC(C)NC(=O)[C@H]1CCC[C@H]1Nc1nc(Nc2ccc(CN(C)C)cc2)ncc1Br.Cl`
-0.38

Again, but for `C[C@@H]1C[C@H](C)CN(c2ncc(Cl)c(Nc3ccc4c(c3)cc(OC(C)(C)C(=O)O)c(=O)n4C)n2)C1`
0.85

Again, but for `O=C(O)CNC(=O)c1c(O)c2ccccc2n(Cc2ccccc2)c1=O`
0.29

Again, but for `C[C@@H](c1ccc(F)cc1)n1nnc2cnc3ccc(-c4ccc5ocnc5c4)cc3c21`
-0.74

Again, but for `CCOC(=O)c1cnn(-c2ccc(NC(=O)C(Cl)=C(Cl)Cl)cc2)c1C(F)(F)F`
-0.17

Again, but for `COc1cccc(-c2c(C)c(Cc3c(F)cccc3C(F)(F)F)c3n(c2=O)[C@@H]([C@@H](N)c2ccccc2)CS3)c1F`
0.81

Again, but for `COc1cc(N[C@@H]2CCCC[C@]2(O)C(F)(F)F)ccc1F`
-0.16

Again, but for `Cc1cc(Cn2c(N3CC4(CNC4)C3)nc3cc(Cl)cc(N4CCN(C)CC4)c32)cc(C)c1F`
-0.3

Again, but for `CC(C)(O)[C@H](F)CN1Cc2cc(NC(=O)c3cnn4cccnc34)c(N3CCOCC3)cc2C1=O`
-0.84

Again, but for `NC(=O)c1cc2c(-c3ccc(C(=O)NCc4ccnc(Cl)c4)s3)cccc2s1`
-0.34

Again, but for `COc1cc(-c2nn([C@H]3CC[C@H](N4CCN(C(C)=O)CC4)CC3)c3ncnc(N)c23)ccc1NC(=O)c1cc2ccccc2n1C`
-0.86

Again, but for O=C(N[C@H]1CCCCC/C=C\C2C[C@@]2(C(=O)O)NC(=O)[C@@H]2C[C@@H](Oc3ccncc3)CN2C1=O)OC1CCCC1 (some centres not stated)
0.43

* * *

# Test system: Fibroblast
# Assay remarks: Incucyte cell viability with human fibroblast; note: unitless GR value; below 1 slowed growth and below 0 cell loss
# Assay type: toxicity, cell-based
# Condition details: 12 h, 10 µM, compound concentration 10 uM, replicate number 2
Each entry below carries its recorded Growth Rate.
Answer field: number only, no words.

For `Cc1c(-c2cc(-c3ccccc3Cl)no2)cnn1C1CCNCC1.Cl` , what is its reported Growth Rate?
-0.55

Again, but for `N[C@@H]1CCCC[C@H]1Oc1ccc2ncc(-c3cc4ccccc4o3)n2n1`
-0.62

Again, but for `COc1ccc(CC[C@@H](OC(=O)[C@@H]2CCCCN2C(=O)[C@H](c2cc(OC)c(OC)c(OC)c2)C2CCCCC2)c2cccc(OCCN3CCOCC3)c2)cc1OC`
0.99

Again, but for CS(=O)(=O)NC(=O)CCC/C=C\C[C@H]1C(=O)C[C@@H](O)[C@@H]1/C=C/[C@@H](O)COc1ccccc1 [SULPROSTONE]
0.39

Again, but for `O=C(CCSCc1ccco1)NNC(=O)N1Cc2ccccc2Oc2ccc(Cl)cc21`
0.45

Again, but for `O=C(Nc1cccc(C(F)(F)F)c1)c1cc(Cl)ccc1O`
-0.65

Again, but for `CN(C)C/C=C/C(=O)Nc1cccc(C(=O)Nc2ccc(Nc3nccc(-c4cccnc4)n3)cc2)c1`
-0.34

Again, but for `Clc1ccccc1C(c1ccccc1)(c1ccccc1)n1cccn1`
0.39

Again, but for CC(C)CC(=O)Nc1cncc(-c2ccc3[nH]nc(-c4nc5c(-c6cccc(F)c6)cncc5[nH]4)c3c2)c1 [LORECIVIVINT]
-0.68

Again, but for `Cc1ncsc1-c1ccc(CNC(=O)[C@@H]2C[C@@H](O)CN2C(=O)[C@@H](NC(=O)CCCCNC(=O)c2ccc(-c3ccc(N4CCN(C)CC4)c(NC(=O)c4c[nH]c(=O)cc4C(F)(F)F)c3)cc2)C(C)(C)C)cc1`
0.74

Again, but for CC(C)(C)c1cnc(CSc2cnc(NC(=O)C3CCN(CC(=O)NCCOCCOCCOCCNc4cccc5c4C(=O)N(C4CCC(=O)NC4=O)C5=O)CC3)s2)o1 (stereo not given)
-0.09

Again, but for `Cc1ccc(C)c(OCCCC(C)(C)C(=O)O[C@@H]2O[C@H](C(=O)O)[C@@H](O)[C@H](O)[C@H]2O)c1`
0.42

Again, but for O=C(Nc1cc(C(F)(F)F)cc(C(F)(F)F)c1)c1cc(Cl)ccc1O [IMD-0354]
-0.61

Again, but for `CC(C)n1cc(-c2ccc(N3CCN(C)CC3)c(NC(=O)c3ccc(-c4ccncc4)o3)c2)cn1`
0.45

Again, but for Cn1c(=O)n(CCCO)c(=O)c2c1nc(Oc1cccc(OC(F)(F)F)c1)n2Cc1ccc(Cl)cc1 [ZERENCOTREP]
0.88
